Listed here: items and their measured pIC50.
target: HLA B*1503 (Homo sapiens, UniProt P01889, A329T/A93T/A95T/C349S/D201E/D98Y/E187L/E204Q/K202T/N87E/Q94N/R155S/R180L/S121R/S35A/V306I/V36M/Y140S/Y91S); assay: biochemical
Where a SMILES comes first, the peptide text is derived from it.
FYI, pIC50 means -log10 of a concentration in mol per litre.

Example cases with answers are listed next.
Query CC[C@H](C)[C@H](N)C(=O)N[C@@H](CCSC)C(=O)N[C@@H](Cc1ccccc1)C(=O)N[C@@H](CO)C(=O)N[C@@H](CCCCN)C(=O)N[C@@H](CO)C(=O)N[C@@H](CC(C)C)C(=O)N[C@@H](CC(N)=O)C(=O)N[C@@H](Cc1ccccc1)C(=O)O [3102.1204] (H-IMFSKSLNF-OH) yields pIC50 of 9.64

Query CC(C)C[C@H](NC(=O)[C@H](CC(C)C)NC(=O)[C@@H](NC(=O)[C@H](CO)NC(=O)[C@H](CO)NC(=O)[C@H](CCCCN)NC(=O)[C@@H](N)CCCCN)[C@@H](C)O)C(=O)N[C@H](C(=O)N[C@@H](Cc1ccccc1)C(=O)O)[C@@H](C)O [3102.1189] (H-KKSSTLLTF-OH) yields pIC50 of 9.44

Query CC(C)C[C@H](NC(=O)[C@H](Cc1ccccc1)NC(=O)[C@@H]1CCCN1C(=O)[C@H](CCCNC(=N)N)NC(=O)[C@@H](NC(=O)[C@H](CC(C)C)NC(=O)[C@@H](N)CCCNC(=N)N)C(C)C)C(=O)N[C@H](C(=O)N[C@H](C(=O)O)C(C)C)C(C)C [3102.1135] (H-RLVRPFLVV-OH) yields pIC50 of 7.80

Turning to the following compound.
Query CSCC[C@H](NC(=O)[C@@H](N)CCCNC(=N)N)C(=O)N[C@@H](Cc1ccccc1)C(=O)NCC(=O)N[C@@H](CO)C(=O)N[C@@H](CCCCN)C(=O)N1CCC[C@H]1C(=O)N[C@H](C(=O)N[C@@H](Cc1ccccc1)C(=O)O)[C@@H](C)O [3102.1247] (H-RMFGSKPTF-OH) yields pIC50 of 9.68

---

target: HLA A*3201 (Homo sapiens, UniProt P04439, A270S/D101S/D185E/E176V/E277Q/F133L/G103R/G107R/G231S/H175R/I121M/I218V/I322F/K168Q/L105A/L300P/L318F/M331R/P208A/P217A/Q94H/R106L/R138Q/S129P/T104I/T323A/T345S/V100E/V321M/V358M); test: biochemical
Where a SMILES comes first, the peptide text is derived from it.
Metric Name: pIC50
FYI, pIC50 means -log10 of a concentration in mol per litre.

Example cases with answers are listed next.
Query CC[C@H](C)[C@H](NC(=O)[C@H](CCCCN)NC(=O)[C@H](CC(C)C)NC(=O)[C@@H](NC(=O)[C@H](Cc1ccc(O)cc1)NC(=O)[C@H](CC(N)=O)NC(=O)[C@H](CC(N)=O)NC(=O)[C@H](CC(C)C)NC(=O)[C@@H](N)CC(C)C)[C@@H](C)O)C(=O)O [3102.0521] (H-LLNNYTLKI-OH) yields pIC50 of 7.60

Query CC[C@H](C)[C@H](NC(=O)[C@@H](NC(=O)[C@@H](N)CO)[C@@H](C)CC)C(=O)N[C@@H](CC(N)=O)C(=O)N[C@@H](CO)C(=O)N[C@@H](CC(N)=O)C(=O)N[C@H](C(=O)N[C@H](C(=O)N[C@@H](Cc1c[nH]c2ccccc12)C(=O)O)[C@@H](C)O)C(C)C [3102.0419] (H-SIINSNVTW-OH) yields pIC50 of 7.96

Query C[C@@H](O)[C@H](NC(=O)CN)C(=O)N[C@@H](Cc1c[nH]cn1)C(=O)N[C@@H](Cc1ccc(O)cc1)C(=O)N[C@@H](CCC(N)=O)C(=O)N[C@@H](CC(N)=O)C(=O)N[C@@H](Cc1c[nH]cn1)C(=O)NCC(=O)N[C@@H](Cc1ccccc1)C(=O)O [3102.0417] (H-GTHYQNHGF-OH) yields pIC50 of 8.22

Query CC[C@H](C)[C@H](N)C(=O)N[C@H](C(=O)N[C@@H](Cc1ccc(O)cc1)C(=O)N1CCC[C@H]1C(=O)N[C@@H](CCCCN)C(=O)N[C@@H](C)C(=O)N[C@@H](CC(C)C)C(=O)N[C@H](C(=O)N[C@@H](Cc1ccccc1)C(=O)O)C(C)C)[C@@H](C)O [3102.0405] (H-ITYPKALVF-OH) yields pIC50 of 8.52

Others:
Query CC[C@H](C)[C@H](NC(=O)[C@@H](NC(=O)[C@@H](NC(=O)[C@@H](NC(=O)[C@@H](NC(=O)[C@@H](NC(=O)[C@H](CC(N)=O)NC(=O)[C@@H](NC(=O)[C@@H](N)C(C)C)[C@@H](C)O)C(C)C)[C@@H](C)CC)[C@@H](C)CC)[C@@H](C)CC)C(C)C)C(=O)O [3102.0336] (H-VTNVIIIVI-OH) yields pIC50 of 7.85

Query CC[C@H](C)[C@H](NC(=O)[C@@H](NC(=O)[C@H](CC(N)=O)NC(=O)[C@@H](NC(=O)[C@@H](NC(=O)[C@H](C)NC(=O)[C@H](Cc1c[nH]c2ccccc12)NC(=O)[C@H](CC(C)C)NC(=O)[C@@H](N)[C@@H](C)O)[C@@H](C)CC)[C@@H](C)CC)[C@@H](C)O)C(=O)O [3102.0403] (H-TLWAIINTI-OH) yields pIC50 of 8.82

Query CC[C@H](C)[C@H](NC(=O)[C@@H](N)CCCCN)C(=O)N[C@@H](CC(N)=O)C(=O)N[C@@H](CCSC)C(=O)N[C@@H](CCC(N)=O)C(=O)N[C@H](C(=O)N[C@@H](CC(C)C)C(=O)N[C@@H](CC(C)C)C(=O)N[C@@H](Cc1ccccc1)C(=O)O)[C@@H](C)O [3102.0488] (H-KINMQTLLF-OH) yields pIC50 of 8.00
